A collection of compounds and their measured Ki
# TARGET OR SYSTEM: recombinant human NK3 receptor (Homo sapiens)
# TEST NAME: [3H]SR142801 competition binding assay
# MEASUREMENT CONDITIONS: hNK3 receptor, membranes from HEK293 cells transiently expressing the receptor, [3H]SR142801 radioligand
Value expressed in pM; do not type the unit.

Here are 2 compounds together with their reported answers.
[[record]]
compound = "CC(=O)c1ccc(N2CCC(C(=O)N3C[C@H]([C@H](C)Oc4ccc(Cl)cn4)[C@@H](c4ccc(Cl)cc4)C3)CC2)nc1 [Example 9]"
target_or_system = "recombinant human NK3 receptor (Homo sapiens)"
experimental_readout = "Ki"
measured_result = 500

[[record]]
compound = "COc1ccc(N2CCC(C(=O)N3C[C@H]([C@H](C)Oc4ccc(Cl)cn4)[C@@H](c4ccc(Cl)cc4)C3)CC2)cn1 [Example 15]"
target_or_system = "recombinant human NK3 receptor (Homo sapiens)"
experimental_readout = "Ki"
measured_result = 500


# query: Ki | item Cc1nnc(N2CCC(C(=O)N3C[C@H]([C@H](C)Oc4ccc(Cl)cn4)[C@@H](c4ccc(Cl)cc4)C3)CC2)o1 [Example 18] | system: recombinant human NK3 receptor (Homo sapiens)
3100

###

# TARGET OR SYSTEM: recombinant human NK3 receptor (Homo sapiens)
# TEST NAME: [3H]SR142801 competition binding assay
# MEASUREMENT CONDITIONS: hNK3 receptor, membranes from HEK293 cells transiently expressing the receptor, [3H]SR142801 radioligand
EXPERIMENTAL READOUT: pKi
For clarity, pKi is expressed as the negative log10 of concentration in mol/L.

Here are 3 molecules together with their reported answers.
[[record]]
molecule = "C[C@H](Oc1ccc(Cl)cn1)[C@H]1CN(C(=O)C2CCN(c3ccncn3)CC2)C[C@@H]1c1ccc(Cl)cc1 [Example 8]"
measured_result = 8.89

[[record]]
molecule = "C[C@H](Oc1ccc(C#N)cn1)[C@H]1CN(C(=O)C2CCN(c3ccc(C#N)cn3)CC2)C[C@@H]1c1ccc(F)c(F)c1 [Example 19]"
measured_result = 8.92

[[record]]
molecule = "Cc1ccc(N2CCC(C(=O)N3C[C@H]([C@H](C)Oc4ccc(F)cn4)[C@@H](c4ccc(Cl)cc4)C3)CC2)nn1 [Example 12]"
measured_result = 8.68


Please find the next molecule below.
Item C[C@H](Oc1ccc(Cl)cn1)[C@H]1CN(C(=O)C2CCN(c3cc(C#N)ccn3)CC2)C[C@@H]1c1ccc(Cl)cc1 [Example 11] has what recorded pKi?
9.30

###

# TARGET OR SYSTEM: recombinant human NK3 receptor (Homo sapiens, UniProt P29371)
# Sequence (P29371 1-465): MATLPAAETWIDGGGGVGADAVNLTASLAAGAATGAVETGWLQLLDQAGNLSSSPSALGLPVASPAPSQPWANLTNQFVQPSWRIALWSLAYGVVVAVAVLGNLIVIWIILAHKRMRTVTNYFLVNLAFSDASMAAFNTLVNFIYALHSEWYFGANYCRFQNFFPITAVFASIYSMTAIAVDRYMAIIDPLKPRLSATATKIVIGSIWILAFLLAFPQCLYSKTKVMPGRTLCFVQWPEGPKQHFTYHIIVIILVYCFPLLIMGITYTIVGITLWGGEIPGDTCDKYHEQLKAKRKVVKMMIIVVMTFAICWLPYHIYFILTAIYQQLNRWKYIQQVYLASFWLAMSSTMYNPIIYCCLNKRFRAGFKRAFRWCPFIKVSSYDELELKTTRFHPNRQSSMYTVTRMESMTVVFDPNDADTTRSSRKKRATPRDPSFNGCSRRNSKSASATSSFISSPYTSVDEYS
# TEST NAME: [3H]SR142801 competition binding assay
# MEASUREMENT CONDITIONS: hNK3 receptor, membranes from HEK293 cells transiently expressing the receptor, [3H]SR142801 radioligand
A collection of molecules and their measured pKi
For clarity, pKi is expressed as the negative log10 of concentration in mol/L.

Here are 2 molecules together with their reported answers.
[[record]]
chemical_structure = "Cc1ccc(N2CCC(C(=O)N3C[C@H]([C@H](C)Oc4ccc(C#N)cn4)[C@@H](c4ccc(F)c(F)c4)C3)CC2)nn1"
experimental_readout = "pKi"
measured_result = 8.55

[[record]]
chemical_structure = "COc1ccc(N2CCC(C(=O)N3C[C@H]([C@H](C)Oc4ccc(Cl)cn4)[C@@H](c4ccc(Cl)cc4)C3)CC2)nn1"
experimental_readout = "pKi"
measured_result = 8.92


Please find the next molecule below.
# query: pKi | item C[C@H](Oc1ccc(Cl)cn1)[C@H]1CN(C(=O)C2CCN(c3cnccn3)CC2)C[C@@H]1c1ccc(Cl)cc1 | system: recombinant human NK3 receptor (Homo sapiens, UniProt P29371)
8.72
